FYI, the data here is from patent US20020115661A1.

biological target: rat ETB receptors (Rattus norvegicus)
Sequence (P21451 27-442): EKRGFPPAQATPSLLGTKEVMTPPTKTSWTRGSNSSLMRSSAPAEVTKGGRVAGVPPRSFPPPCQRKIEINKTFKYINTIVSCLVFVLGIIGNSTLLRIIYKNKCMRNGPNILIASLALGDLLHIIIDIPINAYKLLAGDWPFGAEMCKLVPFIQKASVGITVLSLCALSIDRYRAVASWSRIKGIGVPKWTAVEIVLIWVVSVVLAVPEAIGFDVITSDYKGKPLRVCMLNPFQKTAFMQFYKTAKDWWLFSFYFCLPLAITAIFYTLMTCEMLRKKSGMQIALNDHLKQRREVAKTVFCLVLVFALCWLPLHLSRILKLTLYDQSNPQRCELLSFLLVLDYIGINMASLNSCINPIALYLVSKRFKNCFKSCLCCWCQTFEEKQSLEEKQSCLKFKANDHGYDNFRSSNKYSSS
property: IC50 (nM)
Numbers only, in nM.

Task: Param item = CCc1cc(C2=C(C(=O)[O-])N(c3ccccc3C(F)(F)F)S(=O)(=O)c3ccccc32)cc2c1OCO2.[K+] [CI-1034, monopotassium salt] ; retrieve measured IC50.
Result: 230

----------
Target: rat ETA receptors (Rattus norvegicus, UniProt P26684)
Construct: endogenous in cells
Sequence (P26684 21-426): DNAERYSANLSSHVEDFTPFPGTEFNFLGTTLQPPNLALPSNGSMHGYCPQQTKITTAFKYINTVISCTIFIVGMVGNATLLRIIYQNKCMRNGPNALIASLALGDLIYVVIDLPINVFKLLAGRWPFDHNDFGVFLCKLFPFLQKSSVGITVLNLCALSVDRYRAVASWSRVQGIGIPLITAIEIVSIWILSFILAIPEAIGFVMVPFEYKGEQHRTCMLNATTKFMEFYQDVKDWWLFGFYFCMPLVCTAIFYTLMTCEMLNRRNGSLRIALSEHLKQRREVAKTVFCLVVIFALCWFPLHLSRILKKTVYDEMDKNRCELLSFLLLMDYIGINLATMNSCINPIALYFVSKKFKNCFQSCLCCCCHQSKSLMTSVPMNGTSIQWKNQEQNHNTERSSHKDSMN
Assay: [125I]ET-1 binding, membranes from rat A10 cells
Excerpt: Relative binding activities are given below in TABLE 3.
property: pIC50
Give bare numbers, as −log10 of the molar value.

Task: So what's the measured pIC50 for this one? CCc1cc(C2=C(C(=O)[O-])N(c3ccccc3C(F)(F)F)S(=O)(=O)c3ccccc32)cc2c1OCO2.[K+] [CI-1034, monopotassium salt]
Result: 8.48
